# System: L1210 leukemia ip in BDF1 mice, survival T/C
# Assay Explanation: NCI In Vivo Anticancer Drug Screen. Data for tumor model L1210 Leukemia (intraperitoneal) in B6D2F1 (BDF1) mice
# Reported Conditions: endpoint: mean survival time; dose: 400.0 mg/kg/injection; schedule: Q01DX009 (ip); vehicle: saline with Tween-80; higher = longer survival
Inconclusive results and toxic doses are left out.
Assay Metric: T/C

Given O=C(N1CCC2(CC1)SSC1(CCN(C(=O)C(F)(F)F)CC1)S2)C(F)(F)F , respond with its T/C.
95 % of control

Given Cc1ccc2[nH]c(-c3ccccc3)c(-c3ccccc3)c2c1 , respond with its T/C.
95 % of control

Given C/C=C\c1ccc(OCCOC(=O)Nc2cccc(C(F)(F)F)c2)c(OC)c1 , respond with its T/C.
98 % of control

Given Cc1ccc(Cl)cc1NC(=O)COc1ccc(Cl)cc1Cl , respond with its T/C.
93 % of control

Given CC(C=O)CC1CCCCC1 (stereo not drawn) , respond with its T/C.
95 % of control

Given COc1ccc(C(O)(c2ccccc2)C(OC(=O)c2cc([N+](=O)[O-])cc([N+](=O)[O-])c2)c2ccccc2)cc1 (stereo not drawn) , respond with its T/C.
95 % of control

Given CN(C)C(=O)Nc1cccc(OC(=O)NC(C)(C)C)c1 , respond with its T/C.
94 % of control

Given CCCCCCCCCCCCCCCCOP(=O)(O)OCCCCCCCCCCCCCCCC , respond with its T/C.
93 % of control

Given Cc1ccc(C)c2c1CCCC2=O , respond with its T/C.
96 % of control

Given NC(=O)c1ccccc1OC(=O)Nc1ccccc1F , respond with its T/C.
107 % of control

Given COc1ccccc1-c1c(C(=O)O)cccc1[N+](=O)[O-] , respond with its T/C.
101 % of control

Given O=C(NCCCBr)Nc1cccc2c1CCCC2 , respond with its T/C.
96 % of control

Given Cc1c2cnccc2c(C)c2c1c1ccccc1n2CCOC(=O)c1ccccc1 , respond with its T/C.
95 % of control

* * *

Provide the recorded T/C for the entries that follow.
# System: L1210 leukemia ip in BDF1 mice, survival T/C
# Assay Explanation: NCI In Vivo Anticancer Drug Screen. Data for tumor model L1210 Leukemia (intraperitoneal) in B6D2F1 (BDF1) mice
# Reported Conditions: endpoint: mean survival time; dose: 400.0 mg/kg/injection; schedule: Q04DX003 (ip); vehicle: saline with Tween-80; higher = longer survival
Inconclusive results and toxic doses are left out.

Given C=CCC(CC)C(=O)Cl (configuration not stated) , respond with its T/C.
102 % of control

Given Cc1ccc(Cl)cc1NC(=O)COc1ccc(Cl)cc1Cl , respond with its T/C.
98 % of control

Given CC(C)(C)C(=O)CC(=O)C(C)(C)C.CC(C)(C)C(=O)CC(=O)C(C)(C)C.CC(C)(C)C(=O)CC(=O)C(C)(C)C.[Er] , respond with its T/C.
94 % of control

Given COc1cc(C)c(O)c(C)c1C , respond with its T/C.
95 % of control

Given O=C(/C=C/c1ccccc1)c1ccccc1O , respond with its T/C.
98 % of control

Given Cn1c(=S)sc2cc(Cl)ccc21 , respond with its T/C.
98 % of control

Given O=C1OC2CC3CC2C1C3C(=O)N1CCCCC1 (configuration not stated) , respond with its T/C.
100 % of control

Given O=C(Nc1ccc([N+](=O)[O-])cc1)Nc1ccc([N+](=O)[O-])cc1 , respond with its T/C.
97 % of control

Given Cc1c(Cl)cccc1NC(=O)OCCCc1ccccc1 , respond with its T/C.
91 % of control

Given Nc1nc(SCCO)nc2nc[nH]c12 , respond with its T/C.
90 % of control

Given Brc1ccc2[nH]c3c(c2c1)CSc1ccccc1-3 , respond with its T/C.
103 % of control

Given CCOC(=O)/C(N=O)=C(/O)c1ccccc1 , respond with its T/C.
96 % of control

* * *

# System: L1210 leukemia ip in BDF1 mice, survival T/C
# Assay Explanation: NCI In Vivo Anticancer Drug Screen. Data for tumor model L1210 Leukemia (intraperitoneal) in B6D2F1 (BDF1) mice
# Reported Conditions: endpoint: mean survival time; dose: 400.0 mg/kg/injection; schedule: Q04DX002 (ip); vehicle: Klucel (hydroxypropylcellulose) (HPC); higher = longer survival
Inconclusive results and toxic doses are left out.
Assay Metric: T/C

Please tell me the measured T/C for O=S(=O)(c1ccccc1)N1CN(S(=O)(=O)c2ccccc2)CN(S(=O)(=O)c2ccccc2)C1 ; system: L1210 leukemia ip in BDF1 mice, survival T/C.
96 % of control

Please tell me the measured T/C for Cc1ccc(C(=O)N/N=C/c2c(O)ccc3ccccc23)cc1 ; system: L1210 leukemia ip in BDF1 mice, survival T/C.
96 % of control

Please tell me the measured T/C for c1ccc(C2CCN3c4ccc5ccccc5c4NCC23)cc1 (stereo not drawn) ; system: L1210 leukemia ip in BDF1 mice, survival T/C.
93 % of control

* * *

# Tested on: L1210 leukemia ip in BDF1 mice, survival T/C
# Assay Explanation: NCI In Vivo Anticancer Drug Screen. Data for tumor model L1210 Leukemia (intraperitoneal) in B6D2F1 (BDF1) mice
# Reported Conditions: endpoint: mean survival time; dose: 200.0 mg/kg/injection; schedule: Q01DX009 (ip); vehicle: Klucel (hydroxypropylcellulose) (HPC); higher = longer survival
# Experimental: The antitumor activity of compounds was measured in mice bearing transplantable tumors. Survival or tumor size were measured and the results are expressed as the measurement made in the treated group (T) divided by the measurement made in the vehicle treated control group (C). The tumor model used in this assay is L1210 Leukemia (intraperitoneal) in B6D2F1 (BDF1) mice
Toxic doses and inconclusive results are not listed.
Provide the recorded T/C for the entries that follow.

Please tell me the measured T/C for Cc1cccc(C)c1NC(=O)NCc1ccco1 ; system: L1210 leukemia ip in BDF1 mice, survival T/C.
107 % of control

Please tell me the measured T/C for CNC(=O)Oc1ccc(Br)cc1Br ; system: L1210 leukemia ip in BDF1 mice, survival T/C.
100 % of control

Please tell me the measured T/C for Cc1ccc([N+](=O)[O-])cc1NC(=O)Nc1nccs1 ; system: L1210 leukemia ip in BDF1 mice, survival T/C.
101 % of control

* * *

Provide the recorded T/C for the entries that follow.
# System: L1210 leukemia ip in BDF1 mice, survival T/C
# Assay Explanation: NCI In Vivo Anticancer Drug Screen. Data for tumor model L1210 Leukemia (intraperitoneal) in B6D2F1 (BDF1) mice
# Reported Conditions: endpoint: mean survival time; dose: 25.0 mg/kg/injection; schedule: Q04DX003 (ip); vehicle: saline; higher = longer survival
Toxic doses and inconclusive results are not listed.

Given O=CC(CCN1CCCC1)(CCN1CCCC1)c1cccc2ccccc12 , respond with its T/C.
108 % of control

Given c1ccc2c(C3CCCCN3)c[nH]c2c1 (stereo not drawn) , respond with its T/C.
103 % of control

Given CN(C)CCCN1c2ccccc2Sc2ccc(Cl)cc21 , respond with its T/C.
109 % of control [middle of 4 runs]

* * *

# System: L1210 leukemia ip in BDF1 mice, survival T/C
# Assay Explanation: NCI In Vivo Anticancer Drug Screen. Data for tumor model L1210 Leukemia (intraperitoneal) in B6D2F1 (BDF1) mice
# Reported Conditions: endpoint: mean survival time; dose: 400.0 mg/kg/injection; schedule: Q01DX001 (ip); vehicle: carboxymethylcellulose (CMC); higher = longer survival
Toxic doses and inconclusive results are not listed.
Assay Metric: T/C

Given Cc1ccc2ccc(/C=N/Nc3ccc4cccc(O)c4n3)c(O)c2n1 , respond with its T/C.
88 % of control

Given C/C(=N/OC(=O)N(C)C)c1ccccc1 , respond with its T/C.
90 % of control

Given O=C(OCC1COc2ccccc2O1)C(F)(F)F (stereo not given) , respond with its T/C.
98 % of control

Given O=c1nc2n(c(=O)[nH]1)CCN2 , respond with its T/C.
106 % of control

Given O=C(Nc1ccc(C(=O)Nc2cccc(C3=NCCN3)c2)cc1)Nc1ccc(C(=O)Nc2cccc(C3=NCCN3)c2)cc1 , respond with its T/C.
108 % of control

Given CC1(C)OCC(C2OC3OC(C)(C)OC3C2OS(C)(=O)=O)O1 (stereo not given) , respond with its T/C.
97 % of control

Given c1ccc(N2CNN(c3ccccc3)CN2)cc1 , respond with its T/C.
95 % of control

Given O=C(O)C(O)C1CCCCC1 (stereo not given) , respond with its T/C.
94 % of control

Given COc1ccc(CCNC(=O)Cc2ccc([N+](=O)[O-])cc2)cc1OC , respond with its T/C.
93 % of control

Given CCOC(=O)Nc1ccc2c(c1)/C(=N\NC(N)=S)c1ccccc1-2 , respond with its T/C.
100 % of control

* * *

Provide the recorded T/C for the entries that follow.
# System: L1210 leukemia ip in BDF1 mice, survival T/C
# Assay Explanation: NCI In Vivo Anticancer Drug Screen. Data for tumor model L1210 Leukemia (intraperitoneal) in B6D2F1 (BDF1) mice
# Reported Conditions: endpoint: mean survival time; dose: 100.0 mg/kg/injection; schedule: Q04DX002 (ip); vehicle: Klucel (hydroxypropylcellulose) (HPC); higher = longer survival
Toxic doses and inconclusive results are not listed.

Please tell me the measured T/C for C=CCc1ccc(OCCOCCN(C/C=C(\C)CCC=C(C)C)C/C=C(\C)CCC=C(C)C)c(OC)c1 ; system: L1210 leukemia ip in BDF1 mice, survival T/C.
99 % of control

Please tell me the measured T/C for CC(=O)N(C)c1ccc(NC(=O)Nc2cc([N+](=O)[O-])ccc2C)cc1 ; system: L1210 leukemia ip in BDF1 mice, survival T/C.
106 % of control

Please tell me the measured T/C for O=C(c1ccccc1)C1CCCC1 ; system: L1210 leukemia ip in BDF1 mice, survival T/C.
89 % of control

Please tell me the measured T/C for CC(C)OC(=O)Nc1ccccc1 ; system: L1210 leukemia ip in BDF1 mice, survival T/C.
102 % of control

Please tell me the measured T/C for COC1OC(CI)C(OC(C)=O)C(OC(C)=O)C1OC(C)=O (stereo not drawn) ; system: L1210 leukemia ip in BDF1 mice, survival T/C.
94 % of control

Please tell me the measured T/C for CC1(C)C2(c3ccccc3)C3C=CC3C12c1ccccc1 (stereo not drawn) ; system: L1210 leukemia ip in BDF1 mice, survival T/C.
109 % of control

Please tell me the measured T/C for COC(=O)c1cc(Cl)cc(N)c1Cl ; system: L1210 leukemia ip in BDF1 mice, survival T/C.
98 % of control

Please tell me the measured T/C for CCOC(=O)CNc1cccc(F)c1C ; system: L1210 leukemia ip in BDF1 mice, survival T/C.
104 % of control

Please tell me the measured T/C for CCC(O)(c1ccccc1)c1cnc(C)n1Cc1ccccc1 (stereo not drawn) ; system: L1210 leukemia ip in BDF1 mice, survival T/C.
102 % of control

Please tell me the measured T/C for Cc1ccccc1Nc1nc(N)nc2nc(N)c(C(N)=O)nc12 ; system: L1210 leukemia ip in BDF1 mice, survival T/C.
97 % of control

Please tell me the measured T/C for O=c1[nH]cnc2c1ncn2Cc1cccc2ccccc12 ; system: L1210 leukemia ip in BDF1 mice, survival T/C.
94 % of control

Please tell me the measured T/C for COc1ccc(C(=O)/C=C/c2cccc(OCc3ccccc3)c2)cc1 ; system: L1210 leukemia ip in BDF1 mice, survival T/C.
102 % of control

Please tell me the measured T/C for O=C(Nc1ccccc1)Oc1ccc(C2CCCCC2)cc1 ; system: L1210 leukemia ip in BDF1 mice, survival T/C.
93 % of control

Please tell me the measured T/C for Cc1cccc(NC(C(=O)O)c2ccccc2)c1 (stereo not drawn) ; system: L1210 leukemia ip in BDF1 mice, survival T/C.
100 % of control

Please tell me the measured T/C for NC(=O)C1C(c2ccccc2)C1c1ccccc1 (stereo not drawn) ; system: L1210 leukemia ip in BDF1 mice, survival T/C.
97 % of control

Please tell me the measured T/C for CCS(=O)(=O)C(Br)CBr (stereo not drawn) ; system: L1210 leukemia ip in BDF1 mice, survival T/C.
103 % of control

Please tell me the measured T/C for O=C(NC1CCCCC1)c1ccc(C(=O)NC2CCCCC2)cc1 ; system: L1210 leukemia ip in BDF1 mice, survival T/C.
94 % of control

Please tell me the measured T/C for O=C1OC(=O)C2C3C=CC3C12 (stereo not drawn) ; system: L1210 leukemia ip in BDF1 mice, survival T/C.
95 % of control

Please tell me the measured T/C for O=C(O)COc1cc(Cl)ccc1Cl ; system: L1210 leukemia ip in BDF1 mice, survival T/C.
95 % of control

Please tell me the measured T/C for CCO/C=C1/C(=O)N(C)c2c1c(=O)n(C)c(=O)n2C ; system: L1210 leukemia ip in BDF1 mice, survival T/C.
106 % of control

Please tell me the measured T/C for Cc1cc(C(=O)/C=C(\C(=O)c2ccccc2)c2ccccc2)ccc1Cl ; system: L1210 leukemia ip in BDF1 mice, survival T/C.
86 % of control

Please tell me the measured T/C for O=C(O)/C=C/SCc1ccccc1 ; system: L1210 leukemia ip in BDF1 mice, survival T/C.
97 % of control

Please tell me the measured T/C for CN(C)C(=N)CSS(=O)(=O)O ; system: L1210 leukemia ip in BDF1 mice, survival T/C.
90 % of control

Please tell me the measured T/C for CCCCCCCCCCCCCCCCCCNC(=O)Nc1ccc(OC)cc1 ; system: L1210 leukemia ip in BDF1 mice, survival T/C.
93 % of control

Please tell me the measured T/C for O=S(=O)(c1ccccc1)N1CN(S(=O)(=O)c2ccccc2)CN(S(=O)(=O)c2ccccc2)C1 ; system: L1210 leukemia ip in BDF1 mice, survival T/C.
93 % of control

Please tell me the measured T/C for N#Cc1ccc(N=C(N)N[N+](=O)[O-])cc1 ; system: L1210 leukemia ip in BDF1 mice, survival T/C.
104 % of control

Please tell me the measured T/C for O=C(O)COc1cccc2ccc(Cl)cc12 ; system: L1210 leukemia ip in BDF1 mice, survival T/C.
101 % of control

Please tell me the measured T/C for C1=CC2C1C1(Cc3ccccc3)N=NC2(Cc2ccccc2)C2C=CC21 (stereo not drawn) ; system: L1210 leukemia ip in BDF1 mice, survival T/C.
97 % of control
